- system: HLA-A*02:03
- protocol: IEDB peptide-MHC binding, purified MHC/direct/fluorescence; filed as Kd, often an IC50 or EC50 that approximates it; bounds were set here for any values at or beyond the usual limits of such assays
- conditionNotes: source organism: Maporal virus
pKd: −log10 of the molar value.
quantityMeasured: pKd

- DWMDRIEEF: ≤ 4.70

* * *

- system: HLA-A*24:02
- protocol: IEDB peptide-MHC binding, purified MHC/competitive/radioactivity; filed as Kd, often an IC50 or EC50 that approximates it; bounds were set here for any values at or beyond the usual limits of such assays
- conditionNotes: source organism: Lymphocytic choriomeningitis virus (strain Armstrong)
pKd: −log10 of the molar value.
quantityMeasured: pKd

- CYSSVNDRLV: 5.95

* * *

- system: HLA-A*03:01
- protocol: IEDB peptide-MHC binding, purified MHC/competitive/fluorescence; filed as Kd, often an IC50 or EC50 that approximates it; bounds were set here for any values at or beyond the usual limits of such assays
- conditionNotes: source organism: Vibrio vulnificus YJ016
quantityMeasured: Kd (µM)

• HTSALSLGY = 0.0179

* * *

- system: HLA-A*31:01
- protocol: IEDB peptide-MHC binding, purified MHC/competitive/radioactivity; filed as Kd, often an IC50 or EC50 that approximates it; bounds were set here for any values at or beyond the usual limits of such assays
- conditionNotes: source organism: Mammarenavirus whitewaterense
pKd: −log10 of the molar value.
Here the recorded pKd is given for each entry.
quantityMeasured: pKd

• SRIFEDLVWK = 5.08
• PCMINDTHFL = 4.94

* * *

- system: HLA-A*02:19
- protocol: IEDB peptide-MHC binding, purified MHC/competitive/fluorescence; filed as Kd, often an IC50 or EC50 that approximates it; bounds were set here for any values at or beyond the usual limits of such assays
- conditionNotes: source organism: Mycobacterium tuberculosis variant bovis BCG str. Pasteur 1173P2
pKd: −log10 of the molar value.
quantityMeasured: pKd

• YLAEGHACL = 8.48

* * *

- system: HLA-A*03:01
- protocol: IEDB peptide-MHC binding, purified MHC/direct/fluorescence; filed as Kd, often an IC50 or EC50 that approximates it; bounds were set here for any values at or beyond the usual limits of such assays
- conditionNotes: source organism: Mycobacterium tuberculosis variant bovis BCG str. Pasteur 1173P2
pKd: −log10 of the molar value.
quantityMeasured: pKd

- HPTSRRELL: ≤ 4.70

* * *

- system: HLA-B*57:01
- protocol: IEDB peptide-MHC binding, purified MHC/direct/fluorescence; filed as Kd, often an IC50 or EC50 that approximates it; bounds were set here for any values at or beyond the usual limits of such assays
- conditionNotes: source organism: Escherichia coli O157:H7
quantityMeasured: Kd

* YQAFRTKVH | ≥ 20 µM

* * *

Here the recorded pKd is given for each entry.
- system: HLA-A*32:01
- protocol: IEDB peptide-MHC binding, purified MHC/competitive/radioactivity; filed as Kd, often an IC50 or EC50 that approximates it; bounds were set here for any values at or beyond the usual limits of such assays
- conditionNotes: source organism: Dengue virus 1 Brazil/97-11/1997
pKd: −log10 of the molar value.
quantityMeasured: pKd

- MEHKYSWKSW: 5.69
- AVLTGGVTL: 5.17
- GPLTTLWEGS: 4.74
- LMLVAHYAI: 8.25
- QILLMRTTW: 7.66
